Molecular target: T1, Human IL2Rγ extracellular domain expressed with a C-terminal myc-myc-hexahistidine tag (human)
T1 construct: also called hIL-2Rg-MMH; hIL-2RG-MMH
T1 chain: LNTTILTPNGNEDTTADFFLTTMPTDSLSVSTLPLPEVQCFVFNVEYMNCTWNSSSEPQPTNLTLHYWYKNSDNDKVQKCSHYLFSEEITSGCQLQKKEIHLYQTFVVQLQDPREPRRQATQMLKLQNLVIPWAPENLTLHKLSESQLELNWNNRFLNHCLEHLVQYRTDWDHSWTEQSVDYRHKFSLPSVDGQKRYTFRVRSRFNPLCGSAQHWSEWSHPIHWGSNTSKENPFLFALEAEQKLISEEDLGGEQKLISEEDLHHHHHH
Assay: SPR, captured mAb, 25C, dissociation pH 6.0
QUANTITY_MEASURED: 100 nM Ag Bound (RU)
All answers are understood in RU, so give the number only.

Some solved entries appear below for comparison.
{"columns": ["BINDER", "VALUE_UNITS", "MEASURED_VALUE"],
 "data": [
  ["H4H12889P (antibody, human IgG4 S228P, kappa, V domains shown, anti-IL2Rgamma mAb expressed with human IgG4 Fc; also called REGN7257) VH: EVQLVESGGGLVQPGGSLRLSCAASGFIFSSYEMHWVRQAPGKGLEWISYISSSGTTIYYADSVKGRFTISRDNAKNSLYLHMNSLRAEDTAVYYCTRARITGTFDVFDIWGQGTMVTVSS VL: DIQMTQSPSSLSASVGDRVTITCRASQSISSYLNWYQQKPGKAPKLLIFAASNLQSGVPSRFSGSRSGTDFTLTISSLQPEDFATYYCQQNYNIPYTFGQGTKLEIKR", "RU", 130],
  ["H4H12890P (antibody, human IgG4 S228P, kappa, V domains shown, anti-IL2Rgamma mAb expressed with human IgG4 Fc) VH: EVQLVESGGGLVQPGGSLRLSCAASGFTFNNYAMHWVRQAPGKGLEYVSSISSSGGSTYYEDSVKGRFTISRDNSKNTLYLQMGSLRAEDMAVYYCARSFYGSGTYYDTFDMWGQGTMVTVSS VL: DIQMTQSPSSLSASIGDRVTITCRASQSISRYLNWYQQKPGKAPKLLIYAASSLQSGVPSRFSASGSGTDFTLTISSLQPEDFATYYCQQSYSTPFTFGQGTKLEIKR", "RU", 64]
]}

Find the recorded 100 nM Ag Bound (RU) belonging to H4H12863P (antibody, human IgG4 S228P, kappa, V domains shown, anti-IL2Rgamma mAb expressed with human IgG4 Fc) VH: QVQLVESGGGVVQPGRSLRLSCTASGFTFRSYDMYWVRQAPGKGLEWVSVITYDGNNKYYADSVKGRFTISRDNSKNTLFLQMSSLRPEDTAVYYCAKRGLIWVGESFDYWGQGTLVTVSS VL: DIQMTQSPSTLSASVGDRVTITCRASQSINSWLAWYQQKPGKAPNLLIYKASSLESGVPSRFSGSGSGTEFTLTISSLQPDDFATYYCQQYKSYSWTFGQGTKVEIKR and report it.
116

Recorded 100 nM Ag Bound (RU) of H4H13541P (antibody, human IgG4 S228P, kappa, V domains shown, anti-IL2Rgamma mAb expressed with human IgG4 Fc) VH: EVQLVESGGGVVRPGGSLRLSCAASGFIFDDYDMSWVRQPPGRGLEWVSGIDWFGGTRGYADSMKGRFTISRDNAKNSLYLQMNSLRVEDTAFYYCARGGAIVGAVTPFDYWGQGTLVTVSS VL: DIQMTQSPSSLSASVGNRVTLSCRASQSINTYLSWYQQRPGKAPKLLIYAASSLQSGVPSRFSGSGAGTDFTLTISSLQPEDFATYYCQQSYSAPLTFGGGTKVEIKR , please.
66

Where these numbers come from: patent US20200247894A1
